From: ChEMBL document CHEMBL5365504

System: Cortical neurone
Assay: Induction of neurite outgrowth in Wistar rat Cortical neuron cells assessed as increase in number of branch points incubated for 3 days by DAPI staining based high-content screening method
Type: functional, cell-based
Conditions: 72 h

input_smiles: C[C@@H](N)Cn1ccc2cc(OCc3ccccc3F)ccc21
EC50: < 0.01 µM
--
input_smiles: CCN(CC)[C@H](C)Cn1ccc2cc(OCc3ccccc3)ccc21
EC50: < 0.01 µM
--
input_smiles: C[C@@H](N)Cn1ccc2cc(OCc3ccc(F)cc3)ccc21
EC50: 0.01 µM
--
input_smiles: CN[C@H](C)Cn1ccc2cc(OCc3ccccc3)ccc21
EC50: < 0.01 µM
--
input_smiles: C[C@H](Cn1ccc2cc(OCc3ccccc3)ccc21)N1CCCC1
EC50: 0.01 µM
--
input_smiles: C[C@H](Cn1ccc2cc(OCc3ccc(F)cc3)ccc21)N(C)C
EC50: < 0.01 µM
--
input_smiles: C[C@H](Cn1ccc2nc(OCc3ccccc3)ccc21)N(C)C
EC50: < 0.01 µM
--
input_smiles: C[C@H](Cn1ccc2cc(OCc3ccccc3F)ccc21)N(C)C
EC50: < 0.01 µM
--
input_smiles: C[C@H](Cn1ccc2cc(OCc3cccc(F)c3)ccc21)N(C)C
EC50: < 0.01 µM
--
input_smiles: C[C@@H](N)Cn1ccc2cc(OCc3cccc(F)c3)ccc21
EC50: < 0.01 µM
--
input_smiles: C[C@H](Cn1ccc2cc(OCc3ccccc3)ccc21)N(C)C
EC50: 0.01 µM
